Data provenance: patent US20230372498A1

In this section, each of the compounds is paired with its reported DC50.
Target: PLK1 (Homo sapiens)
Construct: endogenous in cells; host or cells: HeLa
Sequence (P53350 whole entry): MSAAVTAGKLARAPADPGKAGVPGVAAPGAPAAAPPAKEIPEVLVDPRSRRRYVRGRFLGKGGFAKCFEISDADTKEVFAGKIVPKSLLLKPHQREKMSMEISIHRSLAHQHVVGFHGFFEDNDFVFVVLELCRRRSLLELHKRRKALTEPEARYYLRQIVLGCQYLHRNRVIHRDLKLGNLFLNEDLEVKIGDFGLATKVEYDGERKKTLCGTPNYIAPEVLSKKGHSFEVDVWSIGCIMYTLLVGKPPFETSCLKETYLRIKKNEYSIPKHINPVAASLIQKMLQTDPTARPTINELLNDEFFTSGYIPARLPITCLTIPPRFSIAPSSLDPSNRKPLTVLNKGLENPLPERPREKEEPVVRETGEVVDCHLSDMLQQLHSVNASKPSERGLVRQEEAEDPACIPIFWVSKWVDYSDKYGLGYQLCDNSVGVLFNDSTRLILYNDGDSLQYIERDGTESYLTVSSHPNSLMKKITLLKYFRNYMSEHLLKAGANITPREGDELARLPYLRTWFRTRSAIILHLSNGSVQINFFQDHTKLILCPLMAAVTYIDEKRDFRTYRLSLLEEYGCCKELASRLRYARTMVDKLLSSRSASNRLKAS
Assay: PLK1 protein degradation in HeLa cells, Western blotting (PLK1/GAPDH ratio)
Type: cell-based
Conditions: 6 hours compound incubation, measured only if the grade of Dmax is A or B

Observe how each entry below is paired with its result.
[
  {
    "COMPOUND": "COc1cc(C(=O)NC2CCN(CCCOCCCNc3cccc4c3C(=O)N(C3CCC(=O)NC3=O)C4=O)C2)c(F)cc1Nc1ncc2c(n1)N(C1CCCC1)CC(F)(F)C(=O)N2C (centres unmarked)",
    "SYSTEM UNDER TEST": "PLK1 (Homo sapiens)",
    "ASSAY RESULT": "≤ 50 nM"
  },
  {
    "COMPOUND": "COc1cc(C(=O)NC2CCCN(CCOCCOCCNc3cccc4c3C(=O)N(C3CCC(=O)NC3=O)C4=O)C2)c(F)cc1Nc1ncc2c(n1)N(C1CCCC1)CC(F)(F)C(=O)N2C (centres unmarked)",
    "SYSTEM UNDER TEST": "PLK1 (Homo sapiens)",
    "ASSAY RESULT": "≤ 50 nM"
  },
  {
    "COMPOUND": "COc1cc(C(=O)NC2CCN(CCOCCN(C)CCNc3cccc4c3C(=O)N(C3CCC(=O)NC3=O)C4=O)CC2)c(F)cc1Nc1ncc2c(n1)N(C1CCCC1)CC(F)(F)C(=O)N2C (centres unmarked)",
    "SYSTEM UNDER TEST": "PLK1 (Homo sapiens)",
    "ASSAY RESULT": "≤ 500 nM"
  },
  {
    "COMPOUND": "COc1cc(C(=O)NC2CCN(CCCCCCCc3cccc(CNC(=O)COc4cccc5c4C(=O)N(C4CCC(=O)NC4=O)C5=O)c3)CC2)c(F)cc1Nc1ncc2c(n1)N(C1CCCC1)CC(F)(F)C(=O)N2C (centres unmarked)",
    "SYSTEM UNDER TEST": "PLK1 (Homo sapiens)",
    "ASSAY RESULT": "≤ 50 nM"
  },
  {
    "COMPOUND": "COc1cc(C(=O)N[C@@H]2CCN(C(=O)CCCCN3CCN(c4ccc5c(c4)C(=O)N(C4CCC(=O)NC4=O)C5=O)CC3)C2)c(F)cc1Nc1ncc2c(n1)N(C1CCCC1)CC(F)(F)C(=O)N2C (some centres unmarked)",
    "SYSTEM UNDER TEST": "PLK1 (Homo sapiens)",
    "ASSAY RESULT": "≤ 50 nM"
  },
  {
    "COMPOUND": "COc1cc(C(=O)NC2CCN(CCCCCCCc3cncc(CNC(=O)COc4cccc5c4C(=O)N(C4CCC(=O)NC4=O)C5=O)c3)CC2)c(F)cc1Nc1ncc2c(n1)N(C1CCCC1)CC(F)(F)C(=O)N2C (centres unmarked)",
    "SYSTEM UNDER TEST": "PLK1 (Homo sapiens)",
    "ASSAY RESULT": "≤ 50 nM"
  }
]

Record COc1cc(C(=O)NCCOCCOCCNc2ccc3c(c2)C(=O)N(C2CCC(=O)NC2=O)C3=O)c(F)cc1Nc1ncc2c(n1)N(C1CCCC1)CC(F)(F)C(=O)N2C (centres unmarked) . Reported DC50: ≤ 500 nM

Record COc1cc(C(=O)NC2CCN(CCCCCCCCNc3cccc4c3CN(C3CCC(=O)NC3=O)C4=O)CC2)c(F)cc1Nc1ncc2c(n1)N(C1CCCC1)CC(F)(F)C(=O)N2C (centres unmarked) . Reported DC50: ≤ 500 nM

Record COc1cc(C(=O)NC2CCN(C(=O)CCN3CCN(c4cccc5c4C(=O)N(C4CCC(=O)NC4=O)C5=O)CC3)CC2)c(F)cc1Nc1ncc2c(n1)N(C1CCCC1)CC(F)(F)C(=O)N2C (centres unmarked) . Reported DC50: ≤ 50 nM
